Data provenance is paper PMC11767801.

# test: Cell viability assay (MTS)
# Format: cell-based
# condition: hamster, nucleobase dose-response +Prdg 2 1.5 μM
# Description: […] Cell viability assays were performed as described in [9, 10, 23]. […] The plates were read at a 490 nm wavelength at 30 min intervals in a BioTek (Winooski, VT, USA) Neo2 plate reader.
Exercise: for every item that follows, state its recorded CC50 at 3 days.

CC50 at 3 days in this record for NC(=O)c1nc[nH]n1 : > 50 µM

CC50 at 3 days in this record for NC(=O)c1ncc[nH]c1=O : > 167 µM

CC50 at 3 days in this record for NC(=O)c1nc(F)c[nH]c1=O : > 500 µM

---

# test: Cell viability assay (MTS)
# Format: cell-based
# condition: hamster, Table 3; nucleobase dose-response plus vehicle (DMSO)
# Method: […] Cell viability assays were performed as described in [9, 10, 23]. […] The plates were read at a 490 nm wavelength at 30 min intervals in a BioTek (Winooski, VT, USA) Neo2 plate reader.
measured-parameter: CC50 at 3 days

CC50 at 3 days in this record for NC(=O)c1nc(F)c[nH]c1=O [Favipiravir] : > 500 µM

CC50 at 3 days in this record for NC(=O)c1ncc[nH]c1=O [Prdg T-1105] : > 167 µM

CC50 at 3 days in this record for NC(=O)c1nc[nH]n1 [Ribavirin nucleobase] : > 50 µM

---

# test: Cell viability assay (MTS)
# Assay type: cell-based
# condition: hamster, compound alone; DENV replicon cells, MTS, three days
Exercise: for every item that follows, state its recorded CC50 at 3 days.

CC50 at 3 days in this record for O=c1cc[nH]c(=S)[nH]1 : > 50 µM

CC50 at 3 days in this record for NC(=O)c1nc[nH]n1 : > 100 µM

CC50 at 3 days in this record for O=c1ccn([C@@H]2O[C@H](CO)[C@@H](O)[C@H]2O)c(=S)[nH]1 : > 50 µM
